- TGT: UniProt:Q9Y6Y9
- Sequence (Q9Y6Y9 19-160): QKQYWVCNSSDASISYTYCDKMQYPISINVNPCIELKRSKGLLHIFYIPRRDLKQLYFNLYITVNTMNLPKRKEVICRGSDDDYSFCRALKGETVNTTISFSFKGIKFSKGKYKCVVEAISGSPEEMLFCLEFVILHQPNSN
PARAMETER MEASURED: Ki (µM)
Report as a plain number; the unit µM is understood.

# Ki lookup, item COC(=O)[C@H]1[C@@H](OC(=O)c2ccccc2)C[C@@H]2CC[C@H]1N2C [Cocaine]
23.9

Ref: paper PMC4523496
